Consider the following compounds and their measured GI50 readings.
# System: OVCAR-8
# protocol: NCI tumour cell line growth inhibition, 48 h
Calls of active or inactive are those of the source. Rule as the data show it: active = GI50 up to about 1.1 µM and inactive = higher.

Examples from the recorded data:
                                   compound      tgt  readout_kind             observed
0  COC(=O)/C=C(/C(=O)OC)c1cc2ccc3c([nH]c4ccccc43)c(C)c-2c1  OVCAR-8          GI50   3.03 µM (inactive)
1  Cc1nc(O)nc(N/N=C/c2ccc(Cl)c(Cl)c2)c1C(=O)Nc1ccc(Cl)c(Cl)c1  OVCAR-8          GI50   4.27 µM (inactive)
2  COC(=O)C1(C)NCCc2c1[nH]c1ccccc21 (stereo unspecified)  OVCAR-8          GI50  > 100 µM (inactive)

Qu. Give me measured GI50, please, for this compound: O=Cc1ccc(-c2cccc([N+](=O)[O-])c2)s1
Ans. 80.9 µM (inactive)

Qu. Give me measured GI50, please, for this compound: CNC1(c2cc3ccccc3s2)CCCCC1
Ans. 37.2 µM (inactive)

Qu. Give me measured GI50, please, for this compound: Nc1cc(Cl)ccc1SSc1ccc(Cl)cc1N
Ans. 16.6 µM (inactive)
